Ref: patent US8906925B2

Target: human recombinant serotonin (5-Hydroxytryptamine) 5-HT2A receptor (Homo sapiens, UniProt P28223)
Construct: expressed in transfected cells; host or cells: Chinese hamster ovary (CHO-K1) cells
Test: Serotonin 5-HT2A radioligand binding ([3H]Ketanserin)
Conditions: read-out: Inhibition of ligand binding, Serotonin 5-HT2A (percent inhibition of specific binding), compound at 1 μM
endpoint name: inhibition at 1 µM (%)
Express your answer in %, writing the number without its unit.

>>> numeric_result("COc1ccc(/C(C)=C/n2c3c(c4cc(C)ccc42)CN(C)CC3)cc1 [Compound 236]")
99
>>> numeric_result("C/C(=C\\n1c2c(c3cccc(F)c31)CN(C)CC2)c1ccncc1 [Compound 223]")
95
>>> numeric_result("C/C(=C/n1c2c(c3cc(Cl)ccc31)CN(C)CC2)c1cccc(F)c1 [Compound 233]")
97
>>> numeric_result("C/C(=C\\n1c2c(c3cc(Cl)ccc31)CN(C)CC2)c1ccccc1Cl [Compound 238]")
101
>>> numeric_result("CN1CCc2c(c3cc(Cl)ccc3n2/C=C(/c2ccc(F)cc2)C2CC2)C1 [Compound 110]")
98

[ask] Look up inhibition at 1 µM: C/C=C/C(=C\n1c2c(c3cc(Cl)ccc31)CN(C)CC2)c1ccc(F)cc1 [Compound 204]
[reply] 101

[ask] Requested field: inhibition at 1 µM. Item: COC(=O)c1ccc2c(c1)c1c(n2C#Cc2ccc(F)cc2)CCN(C)C1 [Compound No. 479]
[reply] 78

[ask] Suppose we examine the compound Cc1ccc2c(c1)c1c(n2CC(O)c2ccc(C)nc2)CCN(C)C1 (stereo not drawn) [Compound 48] ; what inhibition at 1 µM value has been reported?
[reply] 73

* * *

Entries and their inhibition at 1 µM values follow.
Target: human recombinant serotonin (5-Hydroxytryptamine) 5-HT5A receptor (Homo sapiens)
Construct: expressed in transfected cells; host or cells: Chinese hamster ovary (CHO-K1) cells
Sequence (P47898 whole entry): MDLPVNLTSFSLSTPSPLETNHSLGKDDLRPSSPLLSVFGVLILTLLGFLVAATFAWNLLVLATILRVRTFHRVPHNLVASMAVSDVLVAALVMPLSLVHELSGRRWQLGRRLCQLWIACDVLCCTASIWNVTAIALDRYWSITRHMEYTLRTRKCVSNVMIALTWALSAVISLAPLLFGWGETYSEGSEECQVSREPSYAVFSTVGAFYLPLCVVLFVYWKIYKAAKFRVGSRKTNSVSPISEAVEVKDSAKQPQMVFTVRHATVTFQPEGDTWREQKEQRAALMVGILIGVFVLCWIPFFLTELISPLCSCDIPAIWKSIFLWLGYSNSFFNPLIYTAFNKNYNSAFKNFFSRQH
Test: Serotonin 5-HT5A radioligand binding ([3H]LSD)
Conditions: compound at 1 μM; read-out: Inhibition of ligand binding, Serotonin 5-HT5A (percent inhibition of specific binding)
Please give a number only; it is taken to be in %.

Below: 3 compounds and their reported inhibition at 1 µM.
>>> numeric_result("CCN1CCc2c(c3cc(C)ccc3n2CC(O)c2ccc(C)cc2)C1 (racemic) [Compound 51]")
27
>>> numeric_result("Cc1ccc(C(O)Cn2c3c(c4cc(C)ccc42)CN(C)CC3)cc1 (racemic) [Compound 43]")
61
>>> numeric_result("CCN1CCc2c(c3ccccc3n2CC(O)c2ccc(C)cc2)C1 (racemic) [Compound 44]")
0

[ask] What does the data say about its inhibition at 1 µM? Entry: C/C(=C\n1c2c(c3cc(Cl)ccc31)CN(C)CC2)c1ccc(F)cc1 [Compound 83]
[reply] 97

[ask] For the compound Cc1ccc2c(c1)c1c(n2CC#Cc2ccccn2)CCN(C)C1 [Compound No. 500] , what inhibition at 1 µM is on record?
[reply] 23

[ask] If you can, please state the reported inhibition at 1 µM value of Cc1ccc(C(O)Cn2c3c(c4ccccc42)CN(C)CC3)cc1 (racemic) [Compound 53] .
[reply] 26

* * *

Target: human recombinant serotonin (5-Hydroxytryptamine) 5-HT2A receptor (Homo sapiens)
Construct: expressed in transfected cells; host or cells: Chinese hamster ovary (CHO-K1) cells
Assay: Serotonin 5-HT2A radioligand binding ([3H]Ketanserin)
Conditions: read-out: Inhibition of ligand binding, Serotonin 5-HT2A (percent inhibition of specific binding), compound at 1 μM
Listed next: entries and their corresponding inhibition at 1 µM.
Unit % implied. Number only.

The cases that follow already have their inhibition at 1 µM on record.
>>> numeric_result("C/C(=C\\n1c2c(c3cc(Cl)ccc31)CN(C)CC2)c1cccc(F)c1")
100
>>> numeric_result("CN1CCc2c(c3cc(C(=O)O)ccc3n2C#Cc2ccc(F)cc2)C1")
-8
>>> numeric_result("CN1CCc2c(c3cc(Cl)ccc3n2C/C(=C\\CCO)c2ccc(F)cc2)C1")
99

Let us move to another entry and its inhibition at 1 µM.
[ask] Requested read-out: inhibition at 1 µM. Entry: "C/C(=C/n1c2c(c3cc(Cl)c(Cl)cc31)CN(C)CC2)c1ccncc1"
[reply] 103

* * *

Recorded measurements of inhibition at 1 µM, one per entry
Molecular target: human dopamine D2L receptor (Homo sapiens, UniProt P14416)
Sequence (P14416 whole entry): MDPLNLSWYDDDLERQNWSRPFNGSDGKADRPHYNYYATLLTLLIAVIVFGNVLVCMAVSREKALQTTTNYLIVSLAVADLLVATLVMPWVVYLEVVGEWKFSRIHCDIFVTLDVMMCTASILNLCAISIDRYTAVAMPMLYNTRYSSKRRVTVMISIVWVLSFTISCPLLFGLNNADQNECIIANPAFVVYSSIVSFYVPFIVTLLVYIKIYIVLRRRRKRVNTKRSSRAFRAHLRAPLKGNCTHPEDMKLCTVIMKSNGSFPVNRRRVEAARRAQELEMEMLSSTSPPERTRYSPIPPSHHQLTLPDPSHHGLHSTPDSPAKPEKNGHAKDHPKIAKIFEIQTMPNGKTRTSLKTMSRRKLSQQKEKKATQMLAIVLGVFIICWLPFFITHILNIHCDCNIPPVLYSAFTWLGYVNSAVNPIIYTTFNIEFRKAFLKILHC
Test: Dopamine D2L radioligand binding ([3H]Spiperone)
Conditions: percent inhibition of specific binding; compound at 1 μM; read-out: Inhibition of ligand binding, Dopamine D2L
Enter your answer as a number in %; do not include the unit.

These recorded examples may help you get a feel for the data.
>>> numeric_result("C/C(=C\\n1c2c(c3cc(C)ccc31)CN(CC(F)(F)F)CC2)c1ccncc1 [Compound 291]")
0
>>> numeric_result("COc1ccc2c(c1)c1c(n2/C=C(/C)c2ccncc2)CCN(C)C1 [Compound 239]")
39
>>> numeric_result("C/C(=C\\n1c2c(c3ccccc31)CN(C)CC2)c1ccncc1 [Compound 217]")
86
>>> numeric_result("C/C(=C\\n1c2c(c3cc(Cl)ccc31)CN(C)C(C)C2)c1ccc(F)cc1 (stereo not drawn) [Compound 262]")
97
>>> numeric_result("C/C(=C\\n1c2c(c3cc(C)ccc31)CN(C)CC2)c1ccc(Cl)cc1 [Compound 211]")
39

[ask] May I ask what inhibition at 1 µM has been recorded for CC(C)c1ccc2c3c(n(CC(C)(O)c4ccncc4)c2c1)CCN(C)C3 (stereo not drawn) [Compound 344] ?
[reply] 10

[ask] Sample C/C(=C\n1c2c(c3cc(C)ccc31)CN(C)CC2)c1ccc(O)cc1 [Compound 235] — what was its inhibition at 1 µM?
[reply] 80

[ask] Tell me the measured inhibition at 1 µM of Cc1ccc2c(c1)c1c(n2CC(C)(O)c2ccc(C)nc2)CCN(C)C1 (stereo not drawn) [Compound 52] , please.
[reply] 12

[ask] Would you kindly share the measured inhibition at 1 µM for CN1CCc2c(c3cc(Cl)ccc3n2CC(C)(O)c2ccc(F)cc2)C1 (stereo not drawn) [Compound 45] ?
[reply] 34

* * *

Molecular target: human recombinant serotonin (5-Hydroxytryptamine) 5-HT2C receptor (Homo sapiens, UniProt P28335)
Construct: expressed in transfected cells; host or cells: Chinese hamster ovary (CHO-K1) cells
Sequence (P28335 33-458): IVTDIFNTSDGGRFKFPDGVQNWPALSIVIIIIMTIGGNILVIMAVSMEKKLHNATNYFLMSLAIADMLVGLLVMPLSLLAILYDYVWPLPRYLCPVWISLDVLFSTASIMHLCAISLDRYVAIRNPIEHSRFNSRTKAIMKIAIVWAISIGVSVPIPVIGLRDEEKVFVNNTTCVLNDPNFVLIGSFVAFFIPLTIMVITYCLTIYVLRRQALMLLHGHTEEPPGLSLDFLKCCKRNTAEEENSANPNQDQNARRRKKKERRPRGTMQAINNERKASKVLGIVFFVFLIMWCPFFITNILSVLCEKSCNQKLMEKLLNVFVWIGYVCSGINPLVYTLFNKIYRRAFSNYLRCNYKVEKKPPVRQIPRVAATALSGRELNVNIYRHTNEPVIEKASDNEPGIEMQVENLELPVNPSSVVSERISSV
Experiment: Serotonin 5-HT2C radioligand binding ([3H]Mesulergine)
Details: compound at 1 μM; read-out: Inhibition of ligand binding, Serotonin 5-HT2C (percent inhibition of specific binding)
endpoint name: inhibition at 1 µM (%)
Just the number please, in %, no unit attached.

# annotated cases, reported inhibition at 1 µM shown
>>> numeric_result("C/C(=C\\n1c2c(c3cc(Cl)ccc31)CN(C)CC2)c1ccccc1Cl [Compound 238]")
99
>>> numeric_result("C/C(=C\\n1c2c(c3cc(C)ccc31)CN(C)CC2)c1cc(Cl)cc(Cl)c1 [Compound 218]")
96
>>> numeric_result("C/C(=C\\n1c2c(c3cccc(F)c31)CN(C)CC2)c1ccncc1 [Compound 223]")
93
>>> numeric_result("C/C(=C\\n1c2c(c3cc(Cl)ccc31)CN(C)CC2)c1cccnc1 [Compound 86]")
94
>>> numeric_result("COc1ccc(/C(C)=C/n2c3c(c4cc(Cl)ccc42)CN(C)CC3)cc1 [Compound 92]")
91

[ask] Query: inhibition at 1 µM; subject: C/C(=C\n1c2c(c3cc(Cl)ccc31)CN(C)CC2)c1cc(Cl)cc(Cl)c1 [Compound 215]
[reply] 96

[ask] inhibition at 1 µM for C/C(=C\n1c2c(c3c(Cl)c(Cl)ccc31)CN(C)CC2)c1ccncc1 [Compound 245] ?
[reply] 96

[ask] Sample CCOC(=O)/C=C(/Cn1c2c(c3cc(C)ccc31)CN(C)CC2)c1ccc(F)cc1 [Compound No. 350] — what was its inhibition at 1 µM?
[reply] 87

[ask] Look up inhibition at 1 µM for this compound: CCN1CCc2c(c3cc(C)ccc3n2CC(O)c2ccc(C)cc2)C1 (racemic) [Compound 51]
[reply] 84

[ask] Request the reported inhibition at 1 µM associated with C/C(=C\n1c2c(c3cc(C)ccc31)CN(C)CC2)c1ccc(F)c(F)c1 [Compound 230]
[reply] 100

[ask] Requested field: inhibition at 1 µM. Item: CCCC/C(=C\n1c2c(c3cc(Cl)ccc31)CN(C)CC2)c1ccc(F)cc1 [Compound 208]
[reply] 102

[ask] Please report the recorded inhibition at 1 µM for Cc1ccc2c(c1)c1c(n2CC(O)c2cccnc2)CCN(C)C1 (centres unmarked) [Compound 54] .
[reply] 22

[ask] Give its inhibition at 1 µM value. Item: Cc1ccc(C#Cn2c3c(c4cc(Cl)ccc42)CN(C)CC3)cn1 [Compound No. 484]
[reply] 95

[ask] Could you share which inhibition at 1 µM value was measured for CN1CCc2c(c3cc(Cl)c(Cl)cc3n2CC(C)(O)c2ccncc2)C1 (centres unmarked) [Compound 189] ?
[reply] 91

* * *

Molecular target: UniProtKB P14416
Test: Dopamine D2L radioligand binding ([3H]Spiperone)
Conditions: percent inhibition of specific binding; compound at 1 μM; read-out: Inhibition of ligand binding, Dopamine D2L
endpoint name: inhibition at 1 µM
The reply should read as a number followed by its unit.

See these solved cases before continuing.
>>> result("CN1CCc2c(c3cc(Cl)c(Cl)cc3n2CC(C)(O)c2ccncc2)C1 (centres unmarked) [Compound 189]")
"2%"
>>> result("C/C(=C\\n1c2c(c3ccc(Cl)cc31)CN(C)CC2)c1ccncc1 [Compound 219]")
"96%"
>>> result("C/C(=C/n1c2c(c3cc(C)ccc31)CN(C)CC2)c1ccccc1Cl [Compound 242]")
"55%"

[ask] Query for UniProtKB P14416: what inhibition at 1 µM does the record show for C/C(=C\n1c2c(c3c(Cl)c(Cl)ccc31)CN(C)CC2)c1ccncc1 [Compound 245] ?
[reply] 92%

[ask] What value of inhibition at 1 µM on UniProtKB P14416 does Cc1ccc2c(c1)c1c(n2CC(C)(O)c2ccncc2)CCN(CC(F)(F)F)C1 (centres unmarked) [Compound 341] have?
[reply] 2%
